Cited source: patent US9034873B2

Assay: Cytotoxicity on KB cells
Type: cell-based
Conditions: human, KB cells; read-out: KB cells Cytotoxicity IC50 μg/mL
measurement kind: IC50 (µg/mL)
Record the value in µg/mL, omitting the unit from your answer.

-- ask Any idea what its IC50 is? The molecule is "c1ccc(-c2ccc(-c3cccc(-c4ccc(-c5ccccn5)nn4)n3)nn2)nc1"
-- reply 1.81

====

Test: Cytotoxicity on KB cells
Assay type: cell-based
Conditions: human, KB cancer cells; text of Example 2; read-out: cytotoxic potential on KB cancer cells, IC50
measurement kind: IC50 (µg/mL)
Give the value, in units of µg/mL, as a plain number.

-- ask Please give the measured IC50 for this compound: C=C(OCC)c1ccc(-c2ccc(C(=C)OCC)nn2)nn1 [Compound 24, 6,6′-di(1-ethoxyvinyl)-3,3′-bipyridazine]
-- reply 0.3
